tested_on: MNK2 (Homo sapiens)
Construct: the open reading frames of human Mnk1 and Mnk2a were amplified from cDNA; made in house; host or cells: E. coli BL21
protocol: Mnk2a in vitro kinase assay (indirect fluorescence polarization)
Assay type: biochemical
setup_conditions: pre-activated GST-Mnk2a 2.5 nM, 20 μM ATP, 30 μM substrate peptide
endpoint_label: IC50 (nM)
API: value field is a number in nM; no unit string.

Ask | Indicate its recorded IC50; the molecule in question is Cc1c(C(=O)NCCCN2CCOCC2)sc2ncnc(Nc3ccc(F)cc3O[C@@H]3CCC[C@@H](O)C3)c12 (racemic)
Reply | 26

Ask | Indicate its recorded IC50; the molecule in question is Cc1c(C(=O)NCCCN(C)C)sc2ncnc(Nc3ccc(F)cc3O[C@@H]3CC[C@@H](O)[C@H]3O)c12 (relative stereo)
Reply | 41

Ask | Indicate its recorded IC50; the molecule in question is Cc1c(C(=O)NCCCN(C)C)sc2ncnc(Nc3ccc(F)cc3OC3CCC(O)C3)c12 (stereo not shown)
Reply | 10

Ask | Indicate its recorded IC50; the molecule in question is CO[C@H]1CCC[C@@H](Oc2cc(F)ccc2Nc2ncnc3sc(C(=O)NCCCCO)c(C)c23)C1 (racemic)
Reply | 36

Ask | Indicate its recorded IC50; the molecule in question is "Cc1c(C(N)=O)sc2ncnc(Nc3ccc(F)cc3O[C@H]3CC[C@H](NC4CCN(C)CC4)CC3)c12"
Reply | 13

Ask | Indicate its recorded IC50; the molecule in question is "CC(=O)N[C@H]1C[C@H](Oc2cc(F)ccc2Nc2ncnc3sc(C(=O)O)c(C)c23)C1"
Reply | 23

Ask | Indicate its recorded IC50; the molecule in question is "CO[C@H]1C[C@@H](Oc2cc(F)ccc2Nc2ncnc3sc(C(N)=O)c(C)c23)C[C@H]1OC"
Reply | 53

====

tested_on: MNK2 (Homo sapiens, UniProt Q9HBH9)
Construct: the open reading frames of human Mnk1 and Mnk2a were amplified from cDNA
Sequence (Q9HBH9 whole entry): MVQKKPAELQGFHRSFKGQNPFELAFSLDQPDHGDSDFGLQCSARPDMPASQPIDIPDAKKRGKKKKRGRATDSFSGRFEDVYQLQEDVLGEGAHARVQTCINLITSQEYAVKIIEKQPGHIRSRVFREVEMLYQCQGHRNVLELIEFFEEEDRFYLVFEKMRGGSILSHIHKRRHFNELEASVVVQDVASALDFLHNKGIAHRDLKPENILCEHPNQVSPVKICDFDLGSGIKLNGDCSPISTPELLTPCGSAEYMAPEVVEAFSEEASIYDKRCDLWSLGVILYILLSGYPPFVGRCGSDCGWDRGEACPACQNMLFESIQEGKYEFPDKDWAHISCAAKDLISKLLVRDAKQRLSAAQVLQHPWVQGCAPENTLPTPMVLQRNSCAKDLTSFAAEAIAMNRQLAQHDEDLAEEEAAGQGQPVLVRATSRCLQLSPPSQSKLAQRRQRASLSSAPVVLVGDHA
protocol: Mnk2a in vitro kinase assay (indirect fluorescence polarization)
setup_conditions: pre-activated GST-Mnk2a 2.5 nM, 20 μM ATP, 30 μM substrate peptide
Label MET when IC50 < 10 nM; otherwise NOT MET.

Ask | API: query returns whether the molecule falls strictly under 10 nM in IC50. Query: Cc1c(C(N)=O)sc2ncnc(Nc3ccc(F)cc3O[C@@H]3CCC[C@@H](O)[C@H]3O)c12 (relative stereo)
Reply | NOT MET

Ask | API: query returns whether the molecule falls strictly under 10 nM in IC50. Query: CO[C@H]1CCC[C@@H](Oc2cc(F)ccc2Nc2ncnc3sc(C(N)=O)c(C)c23)C1 (racemic)
Reply | MET

Ask | API: query returns whether the molecule falls strictly under 10 nM in IC50. Query: CO[C@H]1CCC[C@@H](Oc2ncccc2Nc2ncnc3sc(C(=O)NCC(C)O)c(C)c23)C1 (relative stereo)
Reply | NOT MET

Ask | API: query returns whether the molecule falls strictly under 10 nM in IC50. Query: "CC(=O)N(C)[C@H]1CC[C@H](Oc2cc(F)ccc2Nc2ncnc3sc(C(N)=O)c(C)c23)CC1"
Reply | MET

Ask | API: query returns whether the molecule falls strictly under 10 nM in IC50. Query: COC1CCCC(Oc2ncccc2Nc2ncnc3sc(C(=O)NCC4CNCCO4)c(C)c23)C1 (mixture of isomers)
Reply | NOT MET

Ask | API: query returns whether the molecule falls strictly under 10 nM in IC50. Query: CO[C@H]1CCC[C@@H](Oc2ncccc2Nc2ncnc3sc(C(=O)NCc4cnco4)c(C)c23)C1 (racemic)
Reply | NOT MET

Ask | API: query returns whether the molecule falls strictly under 10 nM in IC50. Query: "CC(=O)N(C)[C@H]1CC[C@H](Oc2cc(F)ccc2Nc2ncnc3sc(C(N)=O)c(C)c23)C1"
Reply | NOT MET

====

tested_on: MNK2 (Homo sapiens, UniProt Q9HBH9)
Construct: the open reading frames of human Mnk1 and Mnk2a were amplified from cDNA; made in house; host or cells: E. coli BL21
protocol: Mnk2a in vitro kinase assay (indirect fluorescence polarization)
Assay type: biochemical
setup_conditions: pre-activated GST-Mnk2a 2.5 nM, 20 μM ATP, 30 μM substrate peptide
endpoint_label: IC50 (nM)
API: value field is a number in nM; no unit string.

Ask | Indicate its recorded IC50; the molecule in question is CO[C@@H]1CCC[C@@H](Oc2ncccc2Nc2ncnc3sc(C(=O)NCC4CNCCO4)c(C)c23)C1 (relative stereo)
Reply | 49

Ask | Indicate its recorded IC50; the molecule in question is "CCNC(=O)c1sc2ncnc(Nc3cccnc3O[C@H]3CC[C@H](N)CC3)c2c1C"
Reply | 10

Ask | Indicate its recorded IC50; the molecule in question is CN[C@H]1CCC[C@H](Oc2cc(F)ccc2Nc2ncnc3sc(C(N)=O)c(C)c23)C1 (relative stereo)
Reply | 36

Ask | Indicate its recorded IC50; the molecule in question is "CC(=O)N[C@H]1CC[C@H](Oc2cc(F)ccc2Nc2ncnc3sc(C(=O)NCCO)c(C)c23)C1"
Reply | 14

====

tested_on: MNK2 (Homo sapiens, UniProt Q9HBH9)
Construct: the open reading frames of human Mnk1 and Mnk2a were amplified from cDNA
protocol: Mnk2a in vitro kinase assay (indirect fluorescence polarization)
setup_conditions: pre-activated GST-Mnk2a 2.5 nM, 20 μM ATP, 30 μM substrate peptide
endpoint_label: IC50 (nM)
API: value field is a number in nM; no unit string.

Ask | Would you please give the reported IC50 of "CN[C@H]1CC[C@H](Oc2cc(F)ccc2Nc2ncnc3sc(C(N)=O)c(C)c23)CC1" with MNK2 (Homo sapiens, UniProt Q9HBH9)?
Reply | 7

Ask | Would you please give the reported IC50 of CO[C@H]1CC[C@H](Oc2cc(F)ccc2Nc2ncnc3sc(C(=O)NCC4CCCNC4)c(C)c23)CC1 (stereo partly drawn) with MNK2 (Homo sapiens, UniProt Q9HBH9)?
Reply | 17

Ask | Would you please give the reported IC50 of COC1CCCCC1Oc1cc(F)ccc1Nc1ncnc2sc(C(=O)NC3CCCC3O)c(C)c12 (stereo not drawn) with MNK2 (Homo sapiens, UniProt Q9HBH9)?
Reply | 19

Ask | Would you please give the reported IC50 of "CC(=O)N[C@H]1CC[C@H](Oc2cc(F)ccc2Nc2ncnc3sc(C(N)=O)c(C)c23)C1" with MNK2 (Homo sapiens, UniProt Q9HBH9)?
Reply | 4

Ask | Would you please give the reported IC50 of CO[C@H]1CCC[C@@H](Oc2cc(F)ccc2Nc2ncnc3sc(C(=O)NCCCN4CCCC4)c(C)c23)C1 (racemic) with MNK2 (Homo sapiens, UniProt Q9HBH9)?
Reply | 22

Ask | Would you please give the reported IC50 of "CCCNC(=O)c1sc2ncnc(Nc3cccnc3O[C@H]3CC[C@H](N)CC3)c2c1C" with MNK2 (Homo sapiens, UniProt Q9HBH9)?
Reply | 2

Ask | Would you please give the reported IC50 of Cc1c(C(=O)NCCCCO)sc2ncnc(Nc3ccc(F)cc3O[C@@H]3CCC[C@@H](O)C3)c12 (racemic) with MNK2 (Homo sapiens, UniProt Q9HBH9)?
Reply | 26

Ask | Would you please give the reported IC50 of CCNC(=O)c1sc2ncnc(Nc3cccnc3O[C@@H]3CCC[C@H](OC)C3)c2c1C (racemic) with MNK2 (Homo sapiens, UniProt Q9HBH9)?
Reply | 24

Ask | Would you please give the reported IC50 of Cc1c(C(=O)N[C@H]2CC[C@H](O)CC2)sc2ncnc(Nc3ccc(F)cc3O[C@@H]3CCC[C@@H](O)C3)c12 (racemic) with MNK2 (Homo sapiens, UniProt Q9HBH9)?
Reply | 34

Ask | Would you please give the reported IC50 of CO[C@H]1CCC[C@@H](Oc2ncccc2Nc2ncnc3sc(C(=O)NCc4cn(C)cn4)c(C)c23)C1 (racemic) with MNK2 (Homo sapiens, UniProt Q9HBH9)?
Reply | 19

Ask | Would you please give the reported IC50 of COC1CCCC(Oc2cc(F)ccc2Nc2ncnc3sc(C(=O)NCCCCO)c(C)c23)C1 (stereo not drawn) with MNK2 (Homo sapiens, UniProt Q9HBH9)?
Reply | 98

Ask | Would you please give the reported IC50 of CO[C@@H]1CCC[C@@H](Oc2ncccc2Nc2ncnc3sc(C(=O)NCCO)c(C)c23)C1 (relative stereo) with MNK2 (Homo sapiens, UniProt Q9HBH9)?
Reply | 77

Ask | Would you please give the reported IC50 of Cc1c(C(=O)O)sc2ncnc(Nc3ccc(F)cc3O[C@H]3CCCC[C@H]3O)c12 (single isomer, unassigned) with MNK2 (Homo sapiens, UniProt Q9HBH9)?
Reply | 23

Ask | Would you please give the reported IC50 of Cc1c(C(N)=O)sc2ncnc(Nc3ccc(F)cc3OC3CCC(O)C3)c12 (stereo not drawn) with MNK2 (Homo sapiens, UniProt Q9HBH9)?
Reply | 6

Ask | Would you please give the reported IC50 of COC1CCCC(Oc2ncccc2Nc2ncnc3sc(C(=O)NCC#N)c(C)c23)C1 (stereo not drawn) with MNK2 (Homo sapiens, UniProt Q9HBH9)?
Reply | 19
